test_description: Water solubility of di-sulphate salt (background)
Assay type: physicochemical
observed_property: solubility

Requested read-out: solubility. Entry: CC(C)CN(CCCN1CCN(CCCNc2nc3ccccc3[nH]2)CC1)CC(C)C.O=S(=O)(O)O.O=S(=O)(O)O [di-sulphate salt] > 100 mg/mL

----------
test_description: Solubility assessment in unbuffered water and pH buffers
Format: physicochemical
measurement_parameters: pH 6.8, aqueous buffer, thermodynamic from solid
observed_property: solubility

Requested read-out: solubility. Entry: CC(C)CN(CCCN1CCN(CCCNc2nc3ccccc3[nH]2)CC1)CC(C)C.O=C(O)CCC(=O)O.O=C(O)CCC(=O)O.O=C(O)CCC(=O)O [tris-succinate salt Form 2] > 95.7 mg/mL
